Tested on: plants
assayDetails: Test D pre-emergence, other plants of Tables D1 and D3
Type: in vivo
measurementSetup: ORYSA; preemergent; rate 30; 20 DAA
Protocol: A formulation containing 50 g/L of the test chemical was prepared by dissolving the active ingredient in a mixture of organic solvents and emulsifier, details of which are provided in the table. This formulation was then mixed with a small, variable amount of acetone to aid dissolution, before addition of a 0.2% v/v aqueous solution of an adjuvant, as the aqueous diluent, to form an aqueous spray solution which contains a predetermined concentration of the active ingredient. […]
The following molecules are shown together with reported damage to plant (100=total damage to plant; 0=no damage to plant), ORYSA values.
recordedEndpoint: damage to plant (100=total damage to plant; 0=no damage to plant), ORYSA

[[record]]
molecule = "CN1C[C@H](c2nn(C)c3c(F)cccc23)[C@@H](C(=O)Nc2cccc(F)c2F)C1=O"
numericresult = 0

[[record]]
molecule = "CN1CC(c2cc(C(F)(F)F)n(C)n2)C(C(=O)Nc2ccc(F)c(F)c2F)C1=O (racemic)"
numericresult = 0

[[record]]
molecule = "CCn1nc([C@H]2CN(C)C(=O)[C@@H]2C(=O)Nc2cccc(F)c2F)c2c(F)cccc21"
numericresult = 0

[[record]]
molecule = "CN1CC(c2cc(C(F)(F)F)n(C)n2)C(C(=O)Nc2ccccc2F)C1=O (racemic)"
numericresult = 0


* * *

Test system: barnyardgrass (Echinochloa crus-galli, ECHCG)
assayDetails: Test A post-emergence, barnyardgrass
Assay type: in vivo
measurementSetup: Post-Emergence at 62.5 g/ha; after 13 d
This section presents compounds with their documented damage to plant (100=total damage; 0=no damage) ECHCG values.
recordedEndpoint: damage to plant (100=total damage; 0=no damage) ECHCG

[[record]]
compound = "COc1c(F)cccc1NC(=O)C1C(=O)N(C)CC1c1cc(C(F)(F)F)n(C)n1 (racemic)"
numericresult = 70

[[record]]
compound = "CN1CC(c2cnn(C)c2C(F)(F)F)C(C(=O)Nc2cccc(F)c2F)C1=O (racemic)"
numericresult = 70

[[record]]
compound = "CN1CC(c2cc(C(F)(F)F)n(C)n2)C(C(=O)Nc2cccc(F)c2OC(F)(F)F)C1=O (racemic)"
numericresult = 50

[[record]]
compound = "CN1CC(c2cc(C(F)(F)F)n(C)n2)C(C(=O)Nc2cccc(F)c2C(F)(F)F)C1=O (racemic)"
numericresult = 70

[[record]]
compound = "CN1CC(c2cc(C(F)(F)F)n(C)n2)C(C(=O)Nc2cccc(F)n2)C1=O (racemic)"
numericresult = 80

[[record]]
compound = "CN1CC(c2cc(C(F)(F)F)n(C)n2)C(C(=O)Nc2ccc(F)cc2C(C)(F)F)C1=O (racemic)"
numericresult = 70


* * *

System: plants
assayDetails: Test D pre-emergence, other plants of Tables D1 and D3
Type: in vivo
measurementSetup: pre-emergence, rate 130, 20 DAA, 100=total damage, 0=no damage
recordedEndpoint: damage to plant, AVEFA

[[record]]
molecule = "CN1CC(c2cc(C(F)(F)F)n(C)n2)C(C(=O)Nc2ccc(F)cc2C(C)(F)F)C1=O (racemic)"
testedtarget = "plants"
recordedendpoint = "damage to plant, AVEFA"
numericresult = 10

[[record]]
molecule = "CN1CC(c2cc(Cl)n(C)n2)C(C(=O)Nc2ccc(F)c(F)c2F)C1=O (racemic)"
testedtarget = "plants"
recordedendpoint = "damage to plant, AVEFA"
numericresult = 0

[[record]]
molecule = "CN1CC(c2cc(C(F)(F)F)n(C)n2)C(C(=O)Nc2cccc(F)n2)C1=O (racemic)"
testedtarget = "plants"
recordedendpoint = "damage to plant, AVEFA"
numericresult = 0

[[record]]
molecule = "CN1CC(c2cc(C(F)(F)F)n(C)n2)C(C(=O)Nc2cccc(F)c2C(F)(F)F)C1=O (racemic)"
testedtarget = "plants"
recordedendpoint = "damage to plant, AVEFA"
numericresult = 0

[[record]]
molecule = "CN1CC(c2cc(C(F)(F)F)n(C)n2)C(C(=O)Nc2ccc(F)nc2F)C1=O (racemic)"
testedtarget = "plants"
recordedendpoint = "damage to plant, AVEFA"
numericresult = 0

[[record]]
molecule = "CCn1nc([C@@H]2CN(C)C(=O)[C@H]2C(=O)Nc2cccc(F)c2F)c2cccc(F)c21"
testedtarget = "plants"
recordedendpoint = "damage to plant, AVEFA"
numericresult = 10


Attribution: patent US20220281848A1
